Reference source for all entries: patent US20230339856A1

# measured_target: rhGAA (Homo sapiens (Human), UniProt P10253)
# assay_comment: Thermal stabilization of rhGAA by DSF (differential scanning fluorimetry)
# Assay type: binding
# measurement_parameters: [I]=100 μM, pH 7.4; read-out: rhGAA ΔTm at pH 7.4
# maps each entry to its ΔTm at 100 µM
The reply should be a number in °C, with the unit left off.

Example compounds with recorded ΔTm at 100 µM:
For reference, reported ΔTm at 100 µM for OC[C@@]12CCCCN1C[C@H](O)[C@@H](O)[C@@H]2O stands at 11.8

For reference, reported ΔTm at 100 µM for OCC[C@]1(CO)NC[C@H](O)[C@@H](O)[C@@H]1O stands at 10.7

For reference, reported ΔTm at 100 µM for CCCCCCC[C@]1(CO)NC[C@H](O)[C@@H](O)[C@@H]1O stands at 16.9

For reference, reported ΔTm at 100 µM for OC[C@@]1(CCC2CCCCC2)NC[C@H](O)[C@@H](O)[C@@H]1O stands at 16.8

For reference, reported ΔTm at 100 µM for C[Si](C)(C)CC[C@]1(CO)NC[C@H](O)[C@@H](O)[C@@H]1O stands at 16.5

---
For reference, reported ΔTm at 100 µM for CC[C@]1(CO)NC[C@H](O)[C@@H](O)[C@@H]1O stands at 12.7

For reference, reported ΔTm at 100 µM for OC[C@@]1(CCc2ccccc2)NC[C@H](O)[C@@H](O)[C@@H]1O stands at 13

For reference, reported ΔTm at 100 µM for CCC[C@]1(CO)NC[C@H](O)[C@@H](O)[C@@H]1O stands at 11.5

For reference, reported ΔTm at 100 µM for OC[C@@]1(CCCc2ccccc2)NC[C@H](O)[C@@H](O)[C@@H]1O stands at 15

For reference, reported ΔTm at 100 µM for CCCCC[C@]1(CO)NC[C@H](O)[C@@H](O)[C@@H]1O stands at 6.2

* * *

# measured_target: recombinant human acid α-glucosidase (rhGAA) (Homo sapiens (Human), UniProt P10253)
# assay_comment: Inhibition of rhGAA determined by measuring the residual activity in vitro
# Assay type: biochemical
# measurement_parameters: sodium acetate buffer pH 4.0, 37° C., 4-nitrophenyl-α-D-glucopyranoside substrate
# maps each entry to its pIC50
Friendly reminder that pIC50 comes from taking -log10 of the concentration in mol/L.

For reference, reported pIC50 for CCCCCCC[C@]1(CO)NC[C@H](O)[C@@H](O)[C@@H]1O stands at 4.53

---
For reference, reported pIC50 for C[Si](C)(C)CC[C@]1(CO)NC[C@H](O)[C@@H](O)[C@@H]1O stands at 4.39

For reference, reported pIC50 for OC[C@@]1(CCC23CC4CC(CC(C4)C2)C3)NC[C@H](O)[C@@H](O)[C@@H]1O stands at 4.53

For reference, reported pIC50 for OC[C@@]12CCCN1C[C@H](O)[C@@H](O)[C@@H]2O stands at 3.41

* * *

# measured_target: recombinant human acid α-glucosidase (rhGAA) (Homo sapiens (Human))
# assay_comment: Inhibition of rhGAA determined by Fluopol-ABPP
# Type: binding
# measurement_parameters: McIlvaine buffer pH 5.0, 37° C., TAMRA probe
outcome_measure: pIC50
Friendly reminder that pIC50 comes from taking -log10 of the concentration in mol/L.

Example compounds with recorded pIC50:
For reference, reported pIC50 for OC[C@@]12CCN1C[C@H](O)[C@@H](O)[C@@H]2O [Compound (IIh)] stands at 5.01

For reference, reported pIC50 for OC[C@]12[C@@H](O)[C@H](O)[C@@H](O)CN1[C@@H]2[C@H](O)C1CCCCC1 (some centres unmarked) [Compound (IIn)] stands at 4.61

For reference, reported pIC50 for OC[C@@]12CCCCN1C[C@H](O)[C@@H](O)[C@@H]2O [(IIf)] stands at 6.06

For reference, reported pIC50 for CCC[C@]1(CO)NC[C@H](O)[C@@H](O)[C@@H]1O [(IIb)] stands at 6.41

For reference, reported pIC50 for OC[C@@]12CCCN1C[C@H](O)[C@@H](O)[C@@H]2O [(IIg)] stands at 6.34

---
For reference, reported pIC50 for OC[C@]12[C@@H](O)[C@H](O)[C@@H](O)CN1[C@@H]2C(O)c1ccccc1 (stereo in doubt) [Compound (IIm)] stands at 4.35

For reference, reported pIC50 for OC[C@@H](O)[C@H]1N2C[C@H](O)[C@@H](O)[C@H](O)[C@]12CO (some centres unmarked) [Compound (IIj)] stands at 4.82

For reference, reported pIC50 for OC[C@H]1N2C[C@H](O)[C@@H](O)[C@H](O)[C@]12CO (some centres unmarked) [Compound (IIk)] stands at 4.94

For reference, reported pIC50 for OC[C@@]1(CCc2ccccc2)NC[C@H](O)[C@@H](O)[C@@H]1O [(IIc)] stands at 6.66

For reference, reported pIC50 for CC[C@]1(CO)NC[C@H](O)[C@@H](O)[C@@H]1O [(IIa)] stands at 6.38

For reference, reported pIC50 for OCC[C@]1(CO)NC[C@H](O)[C@@H](O)[C@@H]1O [(IId)] stands at 6.82

* * *

# measured_target: UniProt P10253
# assay_comment: Thermal stabilization of rhGAA by DSF (differential scanning fluorimetry)
# Format: binding
# measurement_parameters: [I]=100 μM, pH 4.0; read-out: rhGAA ΔTm at pH 4.0
Rule: ΔTm at 100 µM below 8 °C gives Y. Equal to or above 8 °C gives N.

Please review the entries below; each comes with its answer.
Below 8 °C on ΔTm at 100 µM? Entry OC[C@@]1(CCc2ccccc2)NC[C@H](O)[C@@H](O)[C@@H]1O N

Below 8 °C on ΔTm at 100 µM? Entry OC[C@@]12CCCCN1C[C@H](O)[C@@H](O)[C@@H]2O Y

Let us examine a further case.
Below 8 °C on ΔTm at 100 µM? Entry OCC[C@]1(CO)NC[C@H](O)[C@@H](O)[C@@H]1O N

* * *

# measured_target: recombinant human acid α-glucosidase (rhGAA) (Homo sapiens (Human))
# assay_comment: Inhibition of rhGAA determined by measuring the residual activity in vitro
# measurement_parameters: sodium acetate buffer pH 4.0, 37° C.
# maps each entry to its Ki
The reply should be a number in µM, with the unit left off.

Example molecules with recorded Ki:
For reference, reported Ki for OC[C@@]1(CCC23CC4CC(CC(C4)C2)C3)NC[C@H](O)[C@@H](O)[C@@H]1O [Compound (IIr)] stands at 20

For reference, reported Ki for OC[C@@]1(CCc2ccccc2)NC[C@H](O)[C@@H](O)[C@@H]1O [(IIc)] stands at 7.6

For reference, reported Ki for CCCCCCC[C@]1(CO)NC[C@H](O)[C@@H](O)[C@@H]1O [Compound (IIb3)] stands at 10.8

---
For reference, reported Ki for CCCCC[C@]1(CO)NC[C@H](O)[C@@H](O)[C@@H]1O [Compound (IIb1)] stands at 6.4

For reference, reported Ki for CCC[C@]1(CO)NC[C@H](O)[C@@H](O)[C@@H]1O [(IIb)] stands at 13

For reference, reported Ki for OCC[C@]1(CO)NC[C@H](O)[C@@H](O)[C@@H]1O [(IId)] stands at 18.9

For reference, reported Ki for OC[C@@]1(CCCc2ccccc2)NC[C@H](O)[C@@H](O)[C@@H]1O [Compound (IIc1)] stands at 13

* * *

# measured_target: recombinant human acid α-glucosidase (rhGAA) (Homo sapiens (Human))
# assay_comment: Inhibition of rhGAA determined by measuring the residual activity in vitro
# Assay type: biochemical
# measurement_parameters: sodium acetate buffer pH 4.0, 37° C., 4-nitrophenyl-α-D-glucopyranoside substrate
pIC50: −log10 of the molar value.
Kindly return 1 if reported pIC50 is no lower than 4; return -1 if it is lower.

Please review the entries below; each comes with its answer.
Evaluate OC[C@@]1(CCc2ccccc2)NC[C@H](O)[C@@H](O)[C@@H]1O : pIC50 at minimum 4? 1

Evaluate OCC[C@]1(CO)NC[C@H](O)[C@@H](O)[C@@H]1O : pIC50 at minimum 4? -1

Evaluate CC[C@]1(CO)NC[C@H](O)[C@@H](O)[C@@H]1O : pIC50 at minimum 4? -1

Evaluate OC[C@@]1(CCCc2ccccc2)NC[C@H](O)[C@@H](O)[C@@H]1O : pIC50 at minimum 4? 1

Evaluate CCCCC[C@]1(CO)NC[C@H](O)[C@@H](O)[C@@H]1O : pIC50 at minimum 4? 1

Let us examine a further case.
Evaluate OC[C@@]12CCCCN1C[C@H](O)[C@@H](O)[C@@H]2O : pIC50 at minimum 4? -1
